# target.under.test: CoV-2 (SARS-CoV-2)
Reported xmid (log10) values follow for various binders
test.readout: xmid (log10)

INSERT INTO measurements (binder, value_measured) VALUES
  ('vhh_tstrep_sars2_pjl1_L_35 (VHH) VHH: QVQLQESGGGLVQAGGSLRLSCAASGRTFSEYAMGWFRQAPGKEREFVATISWSGGSTYYTDSVKGRFTISRDNAKNTVYLQMNSLKPDDTAVYYCAGAGLGTVVSEWDYDYDYWGQGTQVTVSS', 0.231),
  ('vhh_tstrep_sars2_pjl1_L_38 (VHH) VHH: QVQLQESGGGLVQAGGSLRLSCAASGRTFSEYAMGWFRQAPGKEREFVATISWSGGSTYYTDSVKGRFTISRDNAKNTVYLQMNSLKPDDTAVYYCAAAGLGTVVSEWAYDYDYWGQGTQVTVSS', 0.0417);

Taken from patent US20240059759A1.
